Data origin: patent US20260262643A1

Test system: blackgrass
procedure-text: Test A preemergence
Type: in vivo, Alopecurus myosuroides
measurement-parameters: 125 g ai/ha, visual injury after 10 days, 0 to 100 scale, 0 is no effect, 100 is complete control
Description: […]
Labelling field: enter yes (1) if recorded Plant response rating, Blackgrass is less than 30. Enter no (0) if it equals or exceeds that cut-off.

Field: example entries. Status: answers known.
| molecule | label |
| --- | --- |
| CCC(C)c1ncn(-c2cccc(C(=O)N3C[C@H](C)Oc4c(C)cccc43)c2)n1 (some centres unmarked) | no (0) |
| CC(C)Cc1ncn(-c2cccc(C(=O)N3C[C@H](C)Oc4c(Cl)cccc43)c2)n1 | yes (1) |
| C[C@H]1CN(C(=O)c2cccc(-n3cnc(CC4CCCCC4)n3)c2)c2cccc(Cl)c2O1 | yes (1) |
| Cc1cc(F)cc2c1OC(C)CN2C(=O)c1cccc(-n2cncn2)c1 (centres unmarked) | yes (1) |
| Cc1cccc2c1O[C@@H](C)CN2C(=O)c1cc(-n2cncn2)ccc1F | no (0) |

Asked: Does this molecule meet the criterion Plant response rating, Blackgrass < 30? Cc1cccc2c1O[C@@H](C)CN2C(=O)c1cccc(-n2cnc(C(F)(F)F)n2)c1
Given back: no (0)

Asked: Does this molecule meet the criterion Plant response rating, Blackgrass < 30? CC(C)Oc1ccc(-n2cnc(C(C)C)n2)cc1C(=O)N1C[C@H](C)Oc2c(Cl)cccc21
Given back: yes (1)

* * *

System: kochia
procedure-text: Test C preemergence
Assay type: in vivo, Bassia scoparia
measurement-parameters: Preemergence, 125 g ai/ha; 0 to 100 scale, 0 no effect, 100 complete control
Listing of entries alongside the reported Plant response rating, Kochia.
Answer field: number only, no words.

Asked: Plant response rating, Kochia lookup needed for C[C@H]1CN(C(=O)c2cc(-n3cncn3)cc(C(F)(F)F)c2)c2cccc(Cl)c2O1 , thanks.
Given back: 0

Asked: Plant response rating, Kochia lookup needed for C=C(C)c1cc(C(=O)N2C[C@H](C)Oc3c(Cl)cccc32)cc(-n2cncn2)c1 , thanks.
Given back: 0

Asked: Plant response rating, Kochia lookup needed for CC(C)c1ncn(-c2ccc(OS(C)(=O)=O)c(C(=O)N3C[C@H](C)Oc4c(Cl)cccc43)c2)n1 , thanks.
Given back: 60

Asked: Plant response rating, Kochia lookup needed for CC(=O)N(C)c1ncn(-c2cccc(C(=O)N3C[C@H](C)Oc4c(C)cccc43)c2)n1 , thanks.
Given back: 0

Asked: Plant response rating, Kochia lookup needed for CC(C)(C)c1ncn(-c2cc(C(=O)N3CC(C(F)(F)F)Oc4c(Cl)cccc43)ccn2)n1 (stereo not shown) , thanks.
Given back: 20

Asked: Plant response rating, Kochia lookup needed for Cc1ccc(-n2cnc(C(C)(C)C)n2)cc1C(=O)N1CC(C(F)(F)F)Oc2c(Cl)cccc21 (stereo not shown) , thanks.
Given back: 50

Asked: Plant response rating, Kochia lookup needed for CC(C)c1ncn(-c2cc(C(=O)N3CC(C(F)(F)F)Oc4c(Cl)cccc43)ccn2)n1 (racemic) , thanks.
Given back: 40

* * *

Listing of entries alongside the reported Plant response rating, Kochia.
System: kochia
procedure-text: Test C postemergence
Type: in vivo, Bassia scoparia
measurement-parameters: Postemergence, 500 g ai/ha, 10 days, visual 0 to 100 scale (0 no effect, 100 complete control)
Answer field: number only, no words.

| substance-smiles | value |
| --- | --- |
| COC[C@H]1CN(C(=O)c2cc(-n3cnc(C4CC4)n3)ccc2OC)c2cccc(Cl)c2O1 | 90 |
| CC(C)=C(C)c1ncn(-c2cccc(C(=O)N3C[C@H](C)Oc4c(C)cccc43)c2)n1 | 90 |
| COc1c(C)cc(-n2cnc(C(C)C)n2)cc1C(=O)N1C[C@H](C)Oc2c(Cl)cccc21 | 90 |
| CCn1cnc(-c2cccc(C(=O)N3C[C@H](C)Oc4c(C)cccc43)c2)n1 | 0 |
| CCc1c(C)cc(-n2cnc(C(C)C)n2)cc1C(=O)N1C[C@H](C)Oc2c(Cl)cccc21 | 30 |

Asked: Plant response rating, Kochia lookup needed for COc1ccc(-n2cnc(C(C)C)n2)cc1C(=O)N1C[C@H](C)Oc2c(C)cccc21 , thanks.
Given back: 90

Asked: Plant response rating, Kochia lookup needed for COc1ccc(-n2cnc(C(C)C)n2)cc1C(=O)N1C[C@H](C)Oc2c1cccc2C(F)(F)F , thanks.
Given back: 90

Asked: Plant response rating, Kochia lookup needed for C[C@H]1CN(C(=O)c2cc(-n3cnc(C4CC4)n3)cc3c2OCCO3)c2cccc(Cl)c2O1 , thanks.
Given back: 90

* * *

Tested on: goosegrass
procedure-text: Test A postemergence
Type: in vivo, Eleusine indica
measurement-parameters: 500 g ai/ha, Postemergence; 0 to 100 scale
readout: Plant response rating, Goosegrass
Answer field: number only, no words.

| molecule | Plant response rating, Goosegrass |
| --- | --- |
| Cc1cc(F)cc2c1OC(C)CN2C(=O)c1cccc(-n2cncn2)c1 (stereo not drawn) | 70 |

Asked: Plant response rating, Goosegrass lookup needed for C[C@H]1CN(C(=O)c2cccc(-n3cncn3)c2)c2cccc(C#N)c2O1 , thanks.
Given back: 60

Asked: Plant response rating, Goosegrass lookup needed for Cc1cccc2c1O[C@@H](C)CN2C(=O)c1ccc(F)c(-n2cncn2)c1 , thanks.
Given back: 60

* * *

Tested on: barnyardgrass
procedure-text: Test C preemergence
Type: in vivo, Echinochloa crusgalli
measurement-parameters: Preemergence, 125 g ai/ha; 0 to 100 scale, 0 no effect, 100 complete control
Give rule met when the value for Plant response rating, Barnyardgrass is at least 50. Give rule not met when it is less.

Field: example entries. Status: answers known.
| compound | label |
| --- | --- |
| C[C@H]1CN(C(=O)c2cccc(-n3cnc(OS(C)(=O)=O)n3)c2)c2cccc(Cl)c2O1 [Compound 356] | rule not met |
| C[C@H]1CN(C(=O)c2cc(-n3cncn3)cc(C(F)(F)F)c2)c2cccc(Cl)c2O1 [Compound 335] | rule not met |
| Cc1ccc(-n2cnc(C#N)n2)cc1C(=O)N1C[C@H](C)Oc2c(Cl)cccc21 [Compound 363] | rule not met |
| Cc1cccc2c1OC(C(F)(F)F)CN2C(=O)c1ccnc(-n2cnc(C(C)(C)C)n2)c1 (stereo not shown) [Compound 319] | rule not met |
| Cc1cccc2c1OC(C(F)(F)F)CN2C(=O)c1ccnc(-n2cnc(C(C)C)n2)c1 (single isomer, unassigned) [Compound 320] | rule not met |
| Cc1ccc(-n2cnc(C(C)C)n2)cc1C(=O)N1CC(C(F)(F)F)Oc2c(Cl)cccc21 (stereo not shown) [Compound 354] | rule met |
| Cc1nnc(-c2cccc(C(=O)N3C[C@H](C)Oc4c(Cl)cccc43)c2)o1 [Compound 355] | rule not met |
| COc1ccc(-n2cnc(C3CCC3)n2)cc1C(=O)N1C[C@H](C)Oc2c(Cl)cccc21 [Compound 323] | rule met |
| COC(C)c1ncn(-c2ccc(C)c(C(=O)N3CC(C)Oc4c(Cl)cccc43)c2)n1 (mixture of isomers) [Compound 359] | rule met |
| Cc1ccc(-n2cnc(C3(C#N)CCC3)n2)cc1C(=O)N1C[C@H](C)Oc2c(Cl)cccc21 [Compound 402] | rule met |

Asked: I'd appreciate it if you could say whether Cc1ccc(-n2cnc(C(C)(C)C#N)n2)cc1C(=O)N1C[C@H](C)Oc2c(Cl)cccc21 [Compound 397] has Plant response rating, Barnyardgrass at least equal to 50.
Given back: rule met

Asked: I'd appreciate it if you could say whether Cc1ccc(-n2cnc(CS(C)(=N)=O)n2)cc1C(=O)N1C[C@H](C)Oc2c(Cl)cccc21 (stereo partly shown) [Compound 403] has Plant response rating, Barnyardgrass at least equal to 50.
Given back: rule not met

Asked: I'd appreciate it if you could say whether C[C@H]1CN(C(=O)c2cccc(-n3cnc(C4CC4)n3)c2)c2cccc(Cl)c2O1 [Compound 325] has Plant response rating, Barnyardgrass at least equal to 50.
Given back: rule not met

Asked: I'd appreciate it if you could say whether CC(C)c1ncn(-c2ccc(OS(=O)(=O)C(F)(F)F)c(C(=O)N3C[C@H](C)Oc4c(Cl)cccc43)c2)n1 [Compound 339] has Plant response rating, Barnyardgrass at least equal to 50.
Given back: rule not met

Asked: I'd appreciate it if you could say whether CCOC[C@H]1CN(C(=O)c2cc(-n3cnc(C4CCC4)n3)cc3c2OCO3)c2cccc(Cl)c2O1 [Compound 399] has Plant response rating, Barnyardgrass at least equal to 50.
Given back: rule not met

* * *

Test system: ducksalad
procedure-text: Test B flooded paddy test
Format: in vivo, Heteranthera limosa
measurement-parameters: Heteranthera limosa, 312 h, 250 g ai/ha, Flood, 13 days, 0 to 100 scale (0 no effect, 100 complete control); read-out: Plant response rating, Ducksalad
readout: pest or weed control at 250 g/ha (%)
Numeric answer only, unit % assumed.

# annotated cases, reported pest or weed control at 250 g/ha shown
| molecule | pest or weed control at 250 g/ha, % |
| --- | --- |
| O=C(c1cccc(-n2cncn2)c1)N1CC(C2CC2)Oc2c(Cl)cccc21 (stereo not drawn) [Compound 22] | 0 |
| CCc1ccc(-n2cnc(C(C)C)n2)cc1C(=O)N1C[C@H](C)Oc2c(Cl)cccc21 [Compound 94] | 70 |
| COCc1ncn(-c2cccc(C(=O)N3C[C@H](C)Oc4c(C)cccc43)c2)n1 [Compound 101] | 55 |

Asked: pest or weed control at 250 g/ha lookup needed for C[C@H]1CN(C(=O)c2cccc(-c3cnn(C)n3)c2)c2cccc(Cl)c2O1 [Compound 127] , thanks.
Given back: 0

Asked: pest or weed control at 250 g/ha lookup needed for C[C@H]1CN(C(=S)c2cccc(-n3cncn3)c2)c2cccc(Cl)c2O1 [Compound 139] , thanks.
Given back: 75

Asked: pest or weed control at 250 g/ha lookup needed for COc1ccc(-n2cnc(C(C)C)n2)cc1C(=O)N1C[C@H](C)Oc2c(Cl)cccc21 [Compound 84] , thanks.
Given back: 60

Asked: pest or weed control at 250 g/ha lookup needed for Cc1cccc2c1O[C@@H](C(F)(F)F)CN2C(=O)c1cccc(-n2cncn2)c1 (single isomer, unassigned) [Compound 68] , thanks.
Given back: 55

Asked: pest or weed control at 250 g/ha lookup needed for Cc1ccc(-n2cnc(C(C)C)n2)cc1C(=O)N1C[C@H](C)Oc2c(Cl)cccc21 [Compound 73] , thanks.
Given back: 70

Asked: pest or weed control at 250 g/ha lookup needed for C[C@H]1CN(C(=O)c2cccc(-n3cncn3)c2)c2cccc(Cl)c2O1 [Compound 18] , thanks.
Given back: 0
